Target: hCDK1/B (Homo sapiens)
Sequence (P06493 whole entry): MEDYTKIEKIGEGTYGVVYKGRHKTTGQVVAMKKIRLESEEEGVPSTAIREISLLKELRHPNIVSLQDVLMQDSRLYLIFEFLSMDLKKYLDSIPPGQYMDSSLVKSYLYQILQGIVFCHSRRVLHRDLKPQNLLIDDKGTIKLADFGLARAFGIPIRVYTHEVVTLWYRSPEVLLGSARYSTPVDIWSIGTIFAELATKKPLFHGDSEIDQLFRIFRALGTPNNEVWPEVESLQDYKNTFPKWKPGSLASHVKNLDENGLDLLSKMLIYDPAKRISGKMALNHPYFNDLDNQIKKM
Sequence (P14635 whole entry partner): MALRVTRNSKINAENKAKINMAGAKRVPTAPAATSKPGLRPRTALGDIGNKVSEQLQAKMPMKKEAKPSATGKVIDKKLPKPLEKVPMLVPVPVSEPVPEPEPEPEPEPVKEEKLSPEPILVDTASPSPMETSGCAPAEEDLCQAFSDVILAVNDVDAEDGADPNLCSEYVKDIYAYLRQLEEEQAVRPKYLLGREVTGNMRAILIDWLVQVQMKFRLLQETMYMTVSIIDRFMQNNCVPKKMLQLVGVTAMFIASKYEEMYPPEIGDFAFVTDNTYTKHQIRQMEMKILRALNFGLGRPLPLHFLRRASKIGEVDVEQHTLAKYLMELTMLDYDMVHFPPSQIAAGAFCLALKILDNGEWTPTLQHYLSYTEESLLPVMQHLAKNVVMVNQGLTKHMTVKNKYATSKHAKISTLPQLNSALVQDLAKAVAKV
Assay: hCDK1/B
Format: biochemical
Details: Table 2
Please go through the items and note down their IC50.

Give the measured IC50 for CCC(Nc1nccc(-c2c[nH]nc2C(C)C)n1)c1ccccc1 (stereo not drawn) [Example 151] < 1 µM

Give the measured IC50 for Cc1n[nH]cc1-c1ccnc(NC2CCCCCC2)n1 [Example 87] < 5 µM

Give the measured IC50 for Cc1ccc(CNc2nccc(-c3c[nH]nc3C)n2)cc1 [Example 117] ≥ 15 µM

Give the measured IC50 for Cc1n[nH]cc1-c1ccnc(NCC2CCCO2)n1 (stereo not drawn) [Example 88] < 15 µM

Give the measured IC50 for CC(C)c1n[nH]cc1-c1ccnc(NC2CCCc3ccccc32)n1 (stereo not drawn) [Example 169] < 5 µM

Give the measured IC50 for CC(C)COCCCNc1nccc(-c2c[nH]nc2C(C)C)n1 [Example 150] < 1 µM

Give the measured IC50 for Cc1[nH]nc(C(C)C)c1-c1ccnc(NC2CCN(C)CC2)n1 [Example 185] ≥ 15 µM

Give the measured IC50 for CC(CCc1ccccc1)Nc1nccc(-c2c[nH]nc2C(C)C)n1 (stereo not drawn) [Example 155] < 5 µM

Give the measured IC50 for CC(C)c1n[nH]cc1-c1ccnc(NC2CCc3cc(Cl)ccc32)n1 (stereo not drawn) [Example 190] < 5 µM

Give the measured IC50 for Cc1n[nH]cc1-c1ccnc(NC2CCCNC2)n1 (stereo not drawn) [Example 138] < 5 µM

Give the measured IC50 for Cc1n[nH]cc1-c1ccnc(NCCN2CCOCC2)n1 [Example 99] ≥ 15 µM

Give the measured IC50 for CC(C)c1n[nH]cc1-c1ccnc(N[C@@H]2CCc3ccccc32)n1 [Example 176] < 0.5 µM

----------
Target: CDK2 cyA (Homo sapiens)
Experiment: CDK2 cyA IMAP
Type: biochemical
Settings: Table 2; read-out: CDK2cyA IMAP/ IC50
Please go through the items and note down their IC50.

Give the measured IC50 for Cc1n[nH]cc1-c1ccnc(NCC(=O)OC(C)(C)C)n1 [Example 129] ≥ 15 µM

Give the measured IC50 for CC(C)c1n[nH]cc1-c1ccnc(NCCN2CCCCC2)n1 [Example 173] ≥ 15 µM

Give the measured IC50 for Cc1n[nH]cc1-c1ccnc(NCc2cc(F)cc(F)c2)n1 [Example 135] < 5 µM

Give the measured IC50 for CC(C)c1n[nH]cc1-c1ccnc(N[C@@H]2CCc3ccccc32)n1 [Example 176] < 0.5 µM

Give the measured IC50 for COc1cccc(OC)c1CNc1nccc(-c2c[nH]nc2C(C)C)n1 [Example 156] ≥ 15 µM

Give the measured IC50 for CC(C)c1n[nH]cc1-c1ccnc(NC2CCc3cc(Cl)ccc32)n1 (centres unmarked) [Example 190] < 0.5 µM

Give the measured IC50 for Cc1n[nH]cc1-c1ccnc(NCc2cccnc2)n1 [Example 127] < 10 µM

Give the measured IC50 for CC(C)c1n[nH]cc1-c1ccnc(NC2CCc3cc(F)ccc32)n1 (centres unmarked) [Example 189] < 0.5 µM

Give the measured IC50 for Cc1n[nH]cc1-c1ccnc(NC2Cc3ccccc3C2)n1 [Example 125] < 5 µM

Give the measured IC50 for Cc1n[nH]cc1-c1ccnc(NCC2CCCO2)n1 (centres unmarked) [Example 88] ≥ 15 µM

Give the measured IC50 for Cc1n[nH]cc1-c1ccnc(NC2CCCCC2)n1 [Example 84] < 5 µM

Give the measured IC50 for COCCCNc1nccc(-c2c[nH]nc2C)n1 [Example 108] ≥ 15 µM

Give the measured IC50 for Cc1cc(C)cc(CNc2nccc(-c3c[nH]nc3C)n2)c1 [Example 134] ≥ 15 µM

Give the measured IC50 for CC(C)c1n[nH]cc1-c1ccnc(NCc2ccccc2F)n1 [Example 165] < 0.5 µM

Give the measured IC50 for CC(C)c1n[nH]cc1-c1ccnc(N[C@H](C)c2ccccn2)n1 [Example 187] < 5 µM

Give the measured IC50 for CCC(C)Nc1nccc(-c2c[nH]nc2C)n1 (centres unmarked) [Example 110] < 5 µM

Give the measured IC50 for CC(C)CNc1nccc(-c2c[nH]nc2C(C)C)n1 [Example 163] < 0.1 µM
